# Measurement Target: rat A2A AR (Rattus norvegicus, UniProt P30543)
# Construct: A2A ARs of rat brain striatal membrane preparations; from tissue; host or cells: rat brain striatum membranes
# Sequence (P30543 whole entry): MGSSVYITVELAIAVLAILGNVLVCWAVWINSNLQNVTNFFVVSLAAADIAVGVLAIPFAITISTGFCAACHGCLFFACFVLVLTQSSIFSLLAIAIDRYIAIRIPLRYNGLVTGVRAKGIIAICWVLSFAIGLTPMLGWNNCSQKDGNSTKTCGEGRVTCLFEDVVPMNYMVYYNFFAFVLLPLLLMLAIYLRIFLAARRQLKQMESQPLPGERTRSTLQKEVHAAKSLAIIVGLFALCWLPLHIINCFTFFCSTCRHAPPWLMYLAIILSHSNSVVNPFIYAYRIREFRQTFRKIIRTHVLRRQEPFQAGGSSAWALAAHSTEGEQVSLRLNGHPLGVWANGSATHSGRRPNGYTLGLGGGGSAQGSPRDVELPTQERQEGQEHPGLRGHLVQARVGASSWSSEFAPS
# Measurement Notes: Radioligand binding assay at rat A2A AR (rat brain striatum) vs. [^3H]MSX-2
# Condition Description: rat (r); rat brain striatum; n = 3; read-out: Ki ± SEM, A2A vs. [^3H]MSX-2
pKi reference
Expect pKi as a plain number equal to -log10 of the molar concentration.

Look over these answered cases.
CCn1c(=O)c2c(nc3n2CCN(Cc2cc(F)cc(Cl)c2)C3)n(C)c1=O [Compound 14n] : 6.01
CCn1c(=O)c2c(nc3n2CCN(Cc2cccc(C(F)(F)F)c2F)C3)n(CC)c1=O [Compound 15h] : 6.05

Shift focus to the following entry.
Specify pKi for CCn1c(=O)c2c(nc3n2CCN(Cc2cc(Br)ccc2F)C3)n(CC)c1=O [Compound 15l] and stop. 6.12

----------
# Measurement Target: recombinant human MAO-B (Homo sapiens)
# Construct: purchased Sigma-Aldrich M7441; host or cells: baculovirus-infected insect cells
# Sequence (P27338 whole entry): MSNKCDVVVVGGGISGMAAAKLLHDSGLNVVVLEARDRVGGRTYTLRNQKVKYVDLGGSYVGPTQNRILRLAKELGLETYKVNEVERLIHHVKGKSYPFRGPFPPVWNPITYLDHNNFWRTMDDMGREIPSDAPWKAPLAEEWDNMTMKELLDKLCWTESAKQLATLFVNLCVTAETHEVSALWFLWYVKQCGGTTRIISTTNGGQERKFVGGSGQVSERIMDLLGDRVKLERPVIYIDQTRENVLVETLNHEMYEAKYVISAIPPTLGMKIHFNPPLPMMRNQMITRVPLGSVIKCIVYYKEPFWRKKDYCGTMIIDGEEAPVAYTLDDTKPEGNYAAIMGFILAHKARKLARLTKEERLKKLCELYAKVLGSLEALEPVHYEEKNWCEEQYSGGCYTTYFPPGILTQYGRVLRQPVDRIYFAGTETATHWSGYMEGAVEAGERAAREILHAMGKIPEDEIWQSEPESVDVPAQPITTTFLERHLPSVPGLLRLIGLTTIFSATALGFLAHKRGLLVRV
# Measurement Notes: Monoamine oxidase assay (Amplex Red), MAO-B
# Type: biochemical
# Condition Description: n = 3; read-out: IC50 ± SEM, Human MAO-B
IC50 reference

Look over these answered cases.
C#CCn1c(=O)c2c(nc3n2CCN(CCc2ccc(OC)c(OC)c2)C3)n(CC)c1=O [Compound 20l] : > 10 µM
CCn1c(=O)c2c(nc3n2CCN(Cc2cc(Br)ccc2F)C3)n(CC)c1=O [Compound 15l] : 1.31 µM
CCn1c(=O)c2c(nc3n2CCN(Cc2ccccc2C(F)(F)F)C3)n(C)c1=O [Compound 14d] : ≥ 10 µM

Specify IC50 for CCn1c(=O)c2c(nc3n2CCN(Cc2cccc(C(F)(F)F)c2F)C3)n(CC)c1=O [Compound 15h] and stop. > 10 µM

Specify IC50 for CCn1c(=O)c2c(nc3n2CCN(Cc2cc(F)cc(C(F)(F)F)c2)C3)n(C)c1=O [Compound 14p] and stop. > 10 µM

Specify IC50 for CCn1c(=O)c2c(nc3n2CCN(Cc2ccccc2F)C3)n(CC)c1=O [Compound 15a] and stop. > 10 µM

Specify IC50 for Cn1c(=O)[nH]c(=O)c2c1nc1n2CCN(CCc2cccc(C(F)(F)F)c2)C1 [Compound 13e] and stop. ~10 µM

Specify IC50 for C#CCn1c(=O)c2c(nc3n2CCN(CCc2cccc(OC)c2)C3)n(CC)c1=O [Compound 20j] and stop. > 10 µM

Specify IC50 for C#CCn1c(=O)c2c(nc3n2CCN(c2ccccc2F)C3)n(CC)c1=O [Compound 20a] and stop. > 10 µM

Specify IC50 for Cn1c(=O)[nH]c(=O)c2c1nc1n2CCN(CCc2cccc(Cl)c2)C1 [Compound 13c] and stop. ~10 µM

Specify IC50 for CCn1c(=O)c2c(nc3n2CCN(Cc2cccc(F)c2)C3)n(C)c1=O [Compound 14g] and stop. ≥ 10 µM

Specify IC50 for CCn1c(=O)c2c(nc3n2CCN(Cc2cc(C(F)(F)F)cc(C(F)(F)F)c2)C3)n(C)c1=O [Compound 14q] and stop. < 10 µM

Specify IC50 for CCn1c(=O)n(C)c(=O)c2c1nc1n2CCN(Cc2ccc(Cl)c(Cl)c2)C1 [Compound 16a] and stop. 0.106 µM

Specify IC50 for CCn1c(=O)c2c(nc3n2CCN(Cc2c(Cl)cccc2Cl)C3)n(C)c1=O [Compound 14k] and stop. > 10 µM

Specify IC50 for CCn1c(=O)c2c(nc3n2CCN(Cc2ccc(F)c(Br)c2)C3)n(CC)c1=O [Compound 15k] and stop. < 10 µM

Specify IC50 for CCn1c(=O)c2c(nc3n2CCN(Cc2cccc(Cl)c2)C3)n(C)c1=O [Compound 14i] and stop. ≤ 10 µM

Specify IC50 for C#CCn1c(=O)c2c(nc3n2CCN(Cc2cc(C(F)(F)F)ccc2Cl)C3)n(C)c1=O [Compound 19b] and stop. < 10 µM

----------
inhibition at 10 µM reference
# Measurement Target: human A3 AR (Homo sapiens)
# Construct: expressed in transfected cells; host or cells: CHO cells
# Sequence (P0DMS8 whole entry): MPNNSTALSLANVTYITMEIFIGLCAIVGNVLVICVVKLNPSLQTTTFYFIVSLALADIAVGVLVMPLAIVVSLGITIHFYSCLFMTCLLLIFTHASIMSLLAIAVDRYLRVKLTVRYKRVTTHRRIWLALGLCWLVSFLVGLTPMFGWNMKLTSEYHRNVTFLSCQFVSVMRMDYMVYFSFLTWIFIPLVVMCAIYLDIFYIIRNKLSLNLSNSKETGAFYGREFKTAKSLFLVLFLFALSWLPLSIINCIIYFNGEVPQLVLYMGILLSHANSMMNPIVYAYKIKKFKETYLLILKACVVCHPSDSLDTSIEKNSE
# Measurement Notes: Radioligand binding assay at human A3 AR vs. [^3H]PSB-11
# Condition Description: at 10,000 nM, read-out: % inhibition of radioligand binding at indicated concentration, A3 vs. [^3H]PSB-11
The reply should contain only the number, in %.

CCn1c(=O)c2c(nc3n2CCN(Cc2ccc(F)cc2)C3)n(C)c1=O [Compound 14h] : 37
CCn1c(=O)c2c(nc3n2CCN(Cc2ccc(F)c(C(F)(F)F)c2)C3)n(CC)c1=O [Compound 15i] : 36
CCn1c(=O)c2c(nc3n2CCN(Cc2cccc(C(F)(F)F)c2)C3)n(C)c1=O [Compound 14e] : 38
CCn1c(=O)c2c(nc3n2CCN(Cc2cc(C(F)(F)F)cc(C(F)(F)F)c2)C3)n(CC)c1=O [Compound 15q] : 40

Specify inhibition at 10 µM for Cn1c(=O)[nH]c(=O)c2c1nc1n2CCN(CCc2ccc(Cl)c(Cl)c2)C1 [Compound 13g] and stop. 41

Specify inhibition at 10 µM for C#CCn1c(=O)c2c(nc3n2CCN(CCc2ccccc2)C3)n(CC)c1=O [Compound 20h] and stop. 36

Specify inhibition at 10 µM for CCn1c(=O)c2c(nc3n2CCN(Cc2cc(C(F)(F)F)cc(C(F)(F)F)c2)C3)n(C)c1=O [Compound 14q] and stop. 32

----------
Ki reference
# Measurement Target: rat A2A AR (Rattus norvegicus, UniProt P30543)
# Construct: A2A ARs of rat brain striatal membrane preparations; from tissue; host or cells: rat brain striatum membranes
# Measurement Notes: Radioligand binding assay at rat A2A AR (rat brain striatum) vs. [^3H]MSX-2
# Condition Description: rat (r); rat brain striatum; n = 3; read-out: Ki ± SEM, A2A vs. [^3H]MSX-2
The reply should contain only the number, in nM.

Look over these answered cases.
CCn1c(=O)n(C)c(=O)c2c1nc1n2CCN(Cc2ccc(Cl)c(Cl)c2)C1 [Compound 16a] : 1100
CCn1c(=O)c2c(nc3n2CCN(Cc2cccc(Br)c2)C3)n(CC)c1=O [Compound 15d] : 1040
CCn1c(=O)c2c(nc3n2CCN(Cc2cc(Br)ccc2F)C3)n(C)c1=O [Compound 14o] : 880

Shift focus to the following entry.
Specify Ki for CCn1c(=O)c2c(nc3n2CCN(Cc2cc(F)cc(C(F)(F)F)c2)C3)n(C)c1=O [Compound 14p] and stop. 801

----------
# Measurement Target: human A2A AR (Homo sapiens)
# Construct: expressed in transfected cells; host or cells: CHO cells
# Sequence (P29274 whole entry): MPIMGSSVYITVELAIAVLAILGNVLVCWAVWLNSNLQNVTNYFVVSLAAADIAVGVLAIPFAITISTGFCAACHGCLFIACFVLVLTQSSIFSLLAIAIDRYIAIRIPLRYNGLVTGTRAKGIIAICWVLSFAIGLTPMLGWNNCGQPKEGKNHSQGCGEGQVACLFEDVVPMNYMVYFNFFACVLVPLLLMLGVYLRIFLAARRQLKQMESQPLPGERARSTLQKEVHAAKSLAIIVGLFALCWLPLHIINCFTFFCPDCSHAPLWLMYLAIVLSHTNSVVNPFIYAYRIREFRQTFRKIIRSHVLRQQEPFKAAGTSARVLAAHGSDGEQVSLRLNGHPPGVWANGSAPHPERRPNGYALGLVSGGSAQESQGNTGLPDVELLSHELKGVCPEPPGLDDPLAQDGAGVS
# Measurement Notes: Radioligand binding assay at human A2A AR vs. [^3H]MSX-2
# Condition Description: CHO cell membranes, n = 3, read-out: Ki ± SEM, A2A vs. [^3H]MSX-2
Measurement Type: Ki (nM)
The reply should contain only the number, in nM.

Look over these answered cases.
CCn1c(=O)c2c(nc3n2CCN(Cc2cc(C(F)(F)F)ccc2Cl)C3)n(CC)c1=O [Compound 15n] : 613
CCn1c(=O)c2c(nc3n2CCN(Cc2cccc(Cl)c2)C3)n(CC)c1=O [Compound 15c] : 2380
CCCn1c(=O)c2c(nc3n2CCN(Cc2ccc(Cl)c(Cl)c2)C3)n(C)c1=O : 2110
CCn1c(=O)c2c(nc3n2CCN(Cc2cc(C(F)(F)F)ccc2Cl)C3)n(C)c1=O [Compound 14m] : 881
CCn1c(=O)c2c(nc3n2CCN(Cc2ccc(Br)cc2)C3)n(CC)c1=O [Compound 15e] : 4420

Specify Ki for C#CCn1c(=O)c2c(nc3n2CCN(c2ccc(F)cc2)C3)n(CC)c1=O [Compound 20b] and stop. 378

----------
# Measurement Target: rat A1 AR (Rattus norvegicus, UniProt P25099)
# Sequence (P25099 1-326): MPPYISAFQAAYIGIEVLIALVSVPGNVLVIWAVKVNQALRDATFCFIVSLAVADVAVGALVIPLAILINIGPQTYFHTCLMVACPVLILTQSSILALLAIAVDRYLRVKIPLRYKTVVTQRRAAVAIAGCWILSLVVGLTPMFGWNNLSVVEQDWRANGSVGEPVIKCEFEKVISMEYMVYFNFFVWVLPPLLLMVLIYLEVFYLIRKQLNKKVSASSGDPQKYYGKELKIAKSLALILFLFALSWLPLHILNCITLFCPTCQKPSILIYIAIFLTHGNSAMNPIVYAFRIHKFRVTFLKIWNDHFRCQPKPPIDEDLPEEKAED
Measurement Type: Ki

Look over these answered cases.
CCn1c(=O)c2c(nc3n2CCN(Cc2cc(C(F)(F)F)cc(C(F)(F)F)c2)C3)n(C)c1=O [Compound 14q] : > 1500 nM
CCn1c(=O)n(C)c(=O)c2c1nc1n2CCN(Cc2ccc(Cl)c(Cl)c2)C1 [Compound 16a] : 236 nM
CCn1c(=O)c2c(nc3n2CCN(Cc2cc(C(F)(F)F)cc(C(F)(F)F)c2)C3)n(CC)c1=O [Compound 15q] : > 1500 nM
Cn1c(=O)[nH]c(=O)c2c1nc1n2CCN(CCc2cccc(Cl)c2)C1 [Compound 13c] : > 1500 nM
CCn1c(=O)c2c(nc3n2CCN(Cc2c(Cl)cccc2Cl)C3)n(C)c1=O [Compound 14k] : 142 nM

Specify Ki for C#CCn1c(=O)c2c(nc3n2CCN(c2ccccc2F)C3)n(CC)c1=O [Compound 20a] and stop. 1140 nM

Specify Ki for Cn1c(=O)[nH]c(=O)c2c1nc1n2CCN(Cc2cccc(C(F)(F)F)c2)C1 [Compound 13b] and stop. > 1500 nM

Specify Ki for CCn1c(=O)c2c(nc3n2CCN(Cc2cccc(C(F)(F)F)c2F)C3)n(CC)c1=O [Compound 15h] and stop. 172 nM

Data credit: paper PMC6028563
